Entry source: PubChem BioAssay AID1053175

testMethodNotes: antibacterial activity against Escherichia coli – OD600, primary screen (AID 1053175)
testConditions: Escherichia coli growth, OD600, 23 h
Among all 330,000 compounds or so, about 700 (0.21%) were called active.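 Rule for the calls: active = OD600 absorbance below the run mean of sample wells minus 3.6 SD, in any replicate (cut at about 0.56 in these data); inactive = the rest.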 The sample holds actives, similar compounds and a random draw of the others, so the mix is not that of the screen.
Outcome codes: 1 = active, 0 = inactive

molecule=Cc1cccc(C)c1NC(=S)N(Cc1cccnc1)Cc1ccccc1Cl discretelabel=0
molecule="COc1ccc(CN2C(CC(=O)O)c3ccccc3S2(=O)=O)cc1 (stereo unspecified)" discretelabel=0
molecule=Cc1ccc(CN(Cc2cccnc2)C(=S)Nc2cccc(Cl)c2C)cc1 discretelabel=0
molecule="CC(NC(=O)COc1ccc(C=NNC(=O)C(=O)Nc2ccccc2Br)cc1)c1ccccc1 (stereo unspecified)" discretelabel=0
molecule=CCc1noc(C)c1C(=O)NNC(=O)c1ccc(F)cc1 discretelabel=0
molecule=CCSc1nsc(NC(=O)Nc2cccc(C(C)=O)c2)n1 discretelabel=0
molecule=O=C(/C=C/c1ccc([N+](=O)[O-])o1)NNC(=O)c1ccc(F)cc1 discretelabel=1
molecule=Cc1ccccc1C(=O)ON=C1CCS(=O)(=O)c2sccc21 discretelabel=0
molecule=CSc1nsc(NC(=O)Nc2ccccc2)n1 discretelabel=1
molecule=COc1ccc(C(=O)NN=Cc2ccc(OC)c(CN3CCCc4ccccc43)c2)cc1 discretelabel=0
molecule=C=CCSc1nsc(NC(=O)Nc2cccc(C(C)=O)c2)n1 discretelabel=0

* * *

testMethodNotes: antibacterial activity against Escherichia coli – OD600, primary screen (AID 1053175)
testConditions: Escherichia coli growth, OD600, 23 h; stronger effect = lower value
The campaign covered roughly 330,000 compounds. About 700 (0.21%) were called active. The sample as a whole holds a higher share of actives than the screen did.
Reported OD600 absorbance by item:
experimentalEndpoint: OD600 absorbance

compound=CC(=NNC(=O)CCc1ccc(S(=O)(=O)N2CCOCC2)cc1)c1ccc(OC(F)F)cc1 result=0.715
compound="O=C(CCNS(=O)(=O)c1ccc(Br)cc1)NCC1CCCO1 (stereo not given)" result=0.66
compound=CCCOc1ccc(CNC(=S)NN=Cc2ccc([N+](=O)[O-])cc2)cc1 result=0.66
compound=CCn1cc(C(=O)NCCO)c(=O)c2cc(F)c(N3CCN(C)CC3)cc21 result=0.0485
compound=Cc1occc1C(=O)NN=Cc1cccc2ccccc12 result=0.677
compound=ON=Cc1cccn1-c1nccs1 result=0.697
compound="O=C(COC(=O)c1ccc(F)cc1)NCC1COc2ccccc2O1 (stereo not given)" result=0.688
compound=CCn1cc(S(=O)(=O)c2cccc(C)c2)c(=O)c2cc(F)c(N3CCN(C)CC3)cc21 result=0.662
compound=Cc1ccc2cc(C=NNC(=O)[C@@H]3CCCN3)c(Cl)nc2c1 result=0.699
compound=O=C(NN=C/C(Br)=C\c1ccccc1)c1n[nH]c2c1CCC2 result=0.619
compound="O=C(Nc1cc(Cl)cc(Cl)c1)C(NCCCO)c1ccccc1 (stereo not given)" result=0.697
compound=Fc1ccc(N2CCN(Cc3cnc(Oc4ccc(Br)cc4)s3)CC2)cc1 result=0.726
compound=NC(CCCN1CCCCC1)=NO result=0.705
compound=CCn1cc(C(=O)NCCC(=O)NCCO)c(=O)c2cc3c(cc21)OCO3 result=0.65
compound="CC1CN(C(=S)Nc2ccccc2F)CC(C)O1 (stereo not given)" result=0.662
compound=Cc1csc(NC(=S)Nc2cccc(Cl)c2)n1 result=0.618
compound=C=CCc1cc(C)ccc1OCCCn1ccnc1 result=0.666
compound=COC(=O)Oc1ccc(C=NNC(=O)CN(c2ccccc2Br)S(C)(=O)=O)cc1OC result=0.67
compound=CCc1ccc(-c2nn(-c3ccccc3)cc2CSC(=N)N)cc1 result=0.201
compound="CCc1ccc(-c2nn(-c3ccccc3C)cc2C(=O)N2CCN(C3CCS(=O)(=O)C3)CC2)cc1 (stereo not given)" result=0.66
compound=COc1cc(C=NNC(=O)c2ccncc2)ccc1OC(=O)c1cccc(Br)c1 result=0.605
compound=O=C(Nc1ccccc1C(=O)NN=Cc1ccncc1)c1ccccc1 result=0.706
compound=COc1cc(C=NNC(=O)c2ccc3c(c2)OCCO3)c(Br)c(Br)c1O result=0.727
compound="COc1c(N2CCN(C(=S)Nc3ccccc3F)C(C)C2)c(F)cc2c(=O)c(C(=O)O)cn(C3CC3)c12 (stereo not given)" result=0.071
compound=COc1cc(C=NNC(=O)c2ccc3nc[nH]c3c2)ccc1O result=0.686
compound=Cc1nnc(NN=Cc2ccccn2)[nH]c1=O result=0.466
compound=CC(=NNc1nnc(C)c(=O)[nH]1)C(=O)O result=0.72
compound=CCc1n[nH]c(=S)n1N=Cc1c(O)ccc2ccccc12 result=0.677
compound=Cc1cc([N+](=O)[O-])cc(C)c1OCC(=O)NN=Cc1ccc(OC(=O)c2ccccc2Br)cc1 result=0.708
compound=S=c1[nH]nc(-c2ccncc2)n1N=Cc1ccccc1 result=0.705
compound="CC(NCC(=O)Nc1cc(Cl)cc(Cl)c1)c1ccccc1 (stereo not given)" result=0.522
compound="OC(CNCC1CCCO1)Cn1c2ccc(Br)cc2c2cc(Br)ccc21 (stereo not given)" result=0.547
compound="O=C(Nc1nnc(C2COc3ccccc3O2)o1)c1ccc(F)cc1 (stereo not given)" result=0.346
compound=c1ccc(Cc2ccc(OCCn3ccnc3)cc2)cc1 result=0.583
compound=S=c1[nH]nc(-c2ccncc2)n1N=Cc1cccc2ccccc12 result=0.739
compound="[N-]=[N+]=NCC(Cc1ccccc1)N1CCN(Cc2ccccc2)CCC1=O (stereo not given)" result=0.705
compound=Oc1c(CN2CCN(c3ccc(F)cc3)CC2)cc(Cl)c2cccnc12 result=0.332
compound=CC(=O)Nc1ccc(C(C)=NNC(=O)c2ccc(-c3ccccc3)cc2)cc1 result=0.685
compound=O=C(NN=Cc1c[nH]c2ccccc12)c1ccc(O)c(O)c1 result=0.695
compound=COc1cc(C=NNC(=O)c2ccc3c(c2)OCCO3)cc(Br)c1O result=0.712
compound=S=C(Nc1cccc(Cl)c1)Nc1ccc2c(c1)OCCO2 result=0.613
compound="O=C(O)CC1c2cc(F)ccc2S(=O)(=O)N1Cc1ccccc1 (stereo not given)" result=0.672
compound=OCCNc1nc(Nc2ccc(Cl)c(Cl)c2)nc2ccccc12 result=0.392
compound=OCCCNc1nc(-c2ccccc2)c2cc(Cl)ccc2n1 result=0.647
compound=O=C(CNC(c1ccccc1)c1ccccc1)Nc1ccc(F)cc1 result=0.694

* * *

testMethodNotes: antibacterial activity against Escherichia coli – OD600, primary screen (AID 1053175)
testConditions: Escherichia coli growth, OD600, 23 h; stronger effect = lower value
Among all 330,000 compounds or so, about 700 (0.21%) were called active. The entries come from a sample that favours actives as a whole.
experimentalEndpoint: OD600 absorbance

molecule=CC(=NNC(=O)c1ccc(F)cc1)c1ccccn1 experimentalendpoint="OD600 absorbance" result=0.506
molecule=CC(C)(C)NC(=O)CCN(N=Cc1ccccc1F)C1=NS(=O)(=O)c2ccccc21 experimentalendpoint="OD600 absorbance" result=0.627
molecule=O=C(Nc1nnc(COc2ccccc2)s1)Nc1ccccc1F experimentalendpoint="OD600 absorbance" result=0.649
molecule=CCOC(=O)c1ccc(-c2ccc(C=NNC(=O)CN(c3ccccc3Cl)S(C)(=O)=O)o2)cc1 experimentalendpoint="OD600 absorbance" result=0.728
molecule="CC=C(C)C(=O)NCCN1C2=NCC(C)N2CC1Cc1ccc(O)cc1 (stereo not drawn)" experimentalendpoint="OD600 absorbance" result=0.694
molecule="CC(C)CC(CSc1ccccc1)N1CCN(C)CCC1=O (stereo not drawn)" experimentalendpoint="OD600 absorbance" result=0.708
molecule=COc1ccc(C)cc1NC(=O)CCC(=O)Nc1nnc(C(F)(F)F)s1 experimentalendpoint="OD600 absorbance" result=0.73
molecule=O=C1CCCC(=NNC(=O)c2cc(NS(=O)(=O)c3cccs3)cc(NS(=O)(=O)c3cccs3)c2)C1 experimentalendpoint="OD600 absorbance" result=0.669
molecule=O=[N+]([O-])c1cccc(C=NN2CCN(c3ccccn3)CC2)c1 experimentalendpoint="OD600 absorbance" result=0.693
molecule=CC(=NNC(=O)c1c[nH]c2ccccc12)c1ccccn1 experimentalendpoint="OD600 absorbance" result=0.586
molecule="C=CCN1c2ccccc2[C@]23CC(C(=O)OC)N(C(=O)c4cc(C)oc4C)C2=NC(C(=O)OC)=C(C(=O)OC)C13 (stereo partly drawn)" experimentalendpoint="OD600 absorbance" result=0.651
molecule=COc1ccc(C=C2N=C(SC)NC2=O)cc1 experimentalendpoint="OD600 absorbance" result=0.705
molecule="O=C(O)c1cc(O)c2c(c1)C(C1c3cc(C(=O)O)cc(O)c3C(=O)c3c(OC4OC(CO)C(O)C(O)C4O)cccc31)c1cccc(OC3OC(CO)C(O)C(O)C3O)c1C2=O (stereo not drawn)" experimentalendpoint="OD600 absorbance" result=0.667
